From: patent US9133271

Could you please report measured % Live Cells (in vitro), KDY66 cells, antibody plus anti-mouse IgG Fab-saporin for the items listed next?
- test_system: T1, human DLL3 on cells (h293-hDLL3 cells; endogenous DLL3 on NTX tumor cells) (human, UniProt Q9NYJ7 27-618)
- T1 sequence: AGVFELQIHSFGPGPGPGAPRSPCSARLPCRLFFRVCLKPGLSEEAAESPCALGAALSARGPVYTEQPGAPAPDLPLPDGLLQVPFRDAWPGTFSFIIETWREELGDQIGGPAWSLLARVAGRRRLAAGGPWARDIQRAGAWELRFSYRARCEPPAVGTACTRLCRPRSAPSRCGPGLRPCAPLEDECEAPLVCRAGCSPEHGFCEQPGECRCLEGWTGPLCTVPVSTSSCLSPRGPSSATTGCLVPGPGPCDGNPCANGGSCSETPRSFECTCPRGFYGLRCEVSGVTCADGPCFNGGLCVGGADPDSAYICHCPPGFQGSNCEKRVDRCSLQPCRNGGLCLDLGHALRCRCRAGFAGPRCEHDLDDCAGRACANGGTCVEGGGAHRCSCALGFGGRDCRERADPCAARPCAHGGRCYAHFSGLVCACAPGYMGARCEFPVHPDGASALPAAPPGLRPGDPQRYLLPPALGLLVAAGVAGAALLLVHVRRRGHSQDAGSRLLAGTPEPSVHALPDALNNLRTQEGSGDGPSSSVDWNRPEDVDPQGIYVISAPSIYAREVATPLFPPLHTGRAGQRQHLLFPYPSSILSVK
- assay_name: cell-based or functional assay
API: value field is a number in %; no unit string.

May I ask what % Live Cells (in vitro), KDY66 cells, antibody plus anti-mouse IgG Fab-saporin has been recorded for SC16.10 (antibody, V domains shown) VH: QVTLKESGPGILQSSQTLSLTCSFSGFSLSTSGMGVGWIRQPSGKGLEWLAHIWWDDVKRYNPVLKSRLTISKDTSSSQVFLKIASVDTADTATYYCARLVDDLYYFDYWGQGTTLTVSS VL: QIVLTQSPAIMSASLGERVTMTCTASSSVSSSYLHWYQQKPGSSPKLWIYSTSNLASGVPTRFSGSGSGTSYSLTISSMEAEDAATYYCHQYHRSPFTFGSGTKLEIK ?
18

Follow-up item: SC16.67 (antibody, V domains shown, murine anti-DLL3 mAb) VH: EVQLVETGGGLVQPKGSLKLSCAVSAFTFTTYAMNWVRQAPGKGLEWVARIRNKSNNYATYYADSVKDRFTISRDDSQSMLYLQMNNLKIEDTAMYYCVFYYDYVYWGQGTLVTVSA VL: QAVVTQESALTTSPGETVTLTCRSSTGAVTTSNYANWIQEKPDHLFTGLIGGTNNRAPGVPARFSGSLIGDKAALTITGAQTEDEAIYFCGLWYSNHLVFGGGTKLTVL
37

What do you have for SC16.65 (antibody, V domains shown) VH: QVTLKESGPGILQPSQTLSLTCSFSGFSLSTSGMGVGWIRQPSGKGLEWLALIWWDDVKRYNPALKSRLTISKDASSSQVFLKIASVDTADTATYYCARIASYDYDVVYAMDYWGQGTSVSVSS VL: QIVLTQSPALMSASPGEKVTMTCSVTSSVSYMYWYQQKPRSSPKPWIYLTSNLASGVPARFSGSGSGTSYSLTISSVEAEDAATYYCQQWRNNPFTFGSGTKVEIK ?
13
